# Assay Text: Microsomal stability assay
# Format: in vitro ADME
# Assay Conditions: human microsomes 20 mg/mL stock (5 μL in 200 µL), PG1 1 mM stock (2 μL), 100 mM phosphate buffer pH 7.4, 5 min pre-incubation, NADPH, 37 °C, 60 min, LC-MS/MS; mean ± SEM; read-out: parent compound turnover percentage
Where a SMILES comes first, the peptide text is derived from it.
Measured Quantity: metabolised at 1 h, 10 µM

stdin: Give its metabolised at 1 h, 10 µM value. Item: CSCC[C@H](NC(=O)[C@@H]1CCCN1C(=O)[C@H](CCC(=O)O)NC(=O)[C@H](CCCCN)NC(=O)[C@@H](N)CCC(N)=O)C(=O)O [PG1, Gln-Lys-Glu-Pro-Met] (H-QKEPM-OH)
stdout: ~13.2%

* * *

# Assay Text: Serum concentration of PG1 in treated mice
# Assay type: in vivo
# Assay Conditions: mouse, mice treated with PG1 (10 mg/Kg daily), ACN/0.1% TFA extraction, LC-MS/MS, LOQ 8.6 pM, mean ± SEM, read-out: serum concentration of pentapeptide
Where a SMILES comes first, the peptide text is derived from it.
Measured Quantity: level at time molar

stdin: Give its level at time molar value. Item: CSCC[C@H](NC(=O)[C@@H]1CCCN1C(=O)[C@H](CCC(=O)O)NC(=O)[C@H](CCCCN)NC(=O)[C@@H](N)CCC(N)=O)C(=O)O [PG1, Gln-Lys-Glu-Pro-Met] (H-QKEPM-OH)
stdout: ~0.017 nM
